B1: CPEB3 Ribozyme (parent)
chain: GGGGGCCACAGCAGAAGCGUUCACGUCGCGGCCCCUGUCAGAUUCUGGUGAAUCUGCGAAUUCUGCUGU

# Variants of: B1
# ASSAY REMARKS: self-cleavage, relative activity (ratio to wild type); higher = more cleavage; co-transcriptional
Some variants, each annotated with its measured self-cleavage.
Respond using a number only.

Some variants with known self-cleavage results, for comparison:
- MUTATION LIST: "C24A G37A"
  ENDPOINT VALUE: 0.229
- MUTATION LIST: "G37C A51C"
  ENDPOINT VALUE: 0.251
- MUTATION LIST: "G17U G48C"
  ENDPOINT VALUE: 0.635
- MUTATION LIST: "C7U G50U"
  ENDPOINT VALUE: 0.96
- MUTATION LIST: "C18U G50A"
  ENDPOINT VALUE: 0.906

QUERY: Query: self-cleavage; subject: C18U A51G
RESULT: 0.853
